Assay: self-splicing fitness, log relative to wild type (ln ratio); higher = more splicing; Tetrahymena group I intron in knt gene, E. coli kanamycin selection, DiMSum; sequences stand for … in CUCUCU…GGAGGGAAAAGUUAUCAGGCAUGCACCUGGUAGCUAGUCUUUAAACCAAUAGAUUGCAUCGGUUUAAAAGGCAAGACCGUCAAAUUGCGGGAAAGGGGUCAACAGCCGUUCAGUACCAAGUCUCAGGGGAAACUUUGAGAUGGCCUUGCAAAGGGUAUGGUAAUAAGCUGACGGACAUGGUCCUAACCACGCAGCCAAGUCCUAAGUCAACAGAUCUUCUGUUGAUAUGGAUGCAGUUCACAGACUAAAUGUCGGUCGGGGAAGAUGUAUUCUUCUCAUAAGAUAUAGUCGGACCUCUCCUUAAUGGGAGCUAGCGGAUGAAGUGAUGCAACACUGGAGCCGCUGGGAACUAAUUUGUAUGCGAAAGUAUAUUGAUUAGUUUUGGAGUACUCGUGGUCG;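 note: selection with 25 µg/mL kanamycin versus none on LB agar overnight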
Conditions: 37 °C
observable: self-splicing fitness (ln)

- AAAAAGCAAUAUUACGUGCU: -0.538
- GCCAAGCAAUAUUACGAACU: -0.873
- UUAGAGCAAUAUUACGGGAA: -0.296
- CGUAAGCAAUAUUACGAUUU: -1.58
- UAGAAGCAAUAUUACGACAU: -0.76
- AUUCAGCAAUAUUACGGGCU: -1.38
- CAAAAGCAAUAUUACGAUGG: -0.139
- GGACAGCAAUAUUACGUUUG: -0.1
- GGGAAGCAAUAUUACGAGCA: -0.522
- GGGGAGCAAUAUUACGCGCG: -0.952
- CUGAAGCAAUAUUACGCUGG: -2.3
- CGGAAGCAAUAUUACGUAGG: -1.38
- AACAAGCAAUAUUACGCUCC: -0.601
